Test system: KB
Test: Cytotoxicity against human KB cells after 3 days
Format: functional
Settings: 72 h
MEASURED_METRIC: GI50 (µM)
// return numeric value only (unit: µM, not printed)

COMPOUND	GI50, µM
CC(=O)c1ccc(N2CCN(Cc3cc(C(=O)/C=C/c4cccn4C)ccc3O)CC2)cc1	39.1
CC(=O)O[C@H]1C(=O)[C@@]2(C)[C@H]([C@H](OC(=O)c3ccccc3)[C@]3(O)C[C@H](OC(=O)[C@H](O)[C@@H](NC(=O)c4ccccc4)c4ccccc4)C(C)=C1C3(C)C)[C@]1(OC(C)=O)CO[C@@H]1C[C@@H]2O [PACLITAXEL]	0.00516
O=C(/C=C/c1ccccn1)c1ccc(N2CCN(Cc3cc(C(=O)/C=C/c4ccccn4)ccc3O)CC2)cc1	1.23
COc1cc(C(=O)/C=C/c2ccccn2)cc(CN2CCN(c3ccc(C(=O)/C=C/c4ccccn4)cc3)CC2)c1O	3.98
O=C(/C=C/c1cccnc1)c1ccc(N2CCN(Cc3cc(C(=O)/C=C/c4cccnc4)ccc3O)CC2)cc1	1.66
CC(=O)c1ccc(N2CCN(Cc3cc(C(=O)/C=C/c4ccc[nH]4)ccc3O)CC2)cc1	19

Next compound, please.
Quick one: GI50 for COc1cc(C(=O)/C=C/c2cccnc2)cc(CN2CCN(c3ccc(C(C)=O)cc3)CC2)c1O ? 13.1

Taken from ChEMBL document CHEMBL1681789.
